Test system: ducksalad
Assay: Test B flood
Assay type: in vivo, Heteranthera limosa
Conditions: 250 g ai/ha, visual rating on 0 to 100 scale (0 no effect, 100 complete control), 13 to 15 days
Method: Seeds selected from rice (Oryza sativa), sedge, umbrella (small-flower umbrella sedge Cyperus difformis), ducksalad (Heteranthera limosa), and barnyardgrass (Echinochloa crus-galli) were grown to the 2-leaf stage for testing. […] Treated plants and controls were maintained in a greenhouse for 13 to 15 days, after which time all species were compared to controls and visually evaluated. […]
property_label: Plant response rating, Ducksalad
Give the value as a plain number.

Some compounds with recorded Plant response rating, Ducksalad:
compound	data_value
CCCNC(=O)c1cc(CC)n(Cc2nc(C(F)(F)F)no2)n1 [Compound 164]	0
CCc1cc(C(=O)NCC(F)(F)F)nn1Cc1cc(C(F)(F)F)nn1CC [Compound 119]	40
CCc1cc(C(=O)NCC(F)(F)F)nn1Cc1ccnc(C(F)(F)F)c1 [Compound 78]	85
CCc1cc(-c2ccc(C(F)(F)F)cc2)nn1Cc1nc(C(F)(F)F)nn1C [Compound 115]	0
CCc1cc(C(=O)NC2CC2)nn1Cc1cc(C(F)(F)F)nn1CC [Compound 118]	30

[ask] For the compound shown here, CCCCNC(=O)c1cc(CC)n(Cc2cc(OC(F)F)nn2C)n1 [Compound 135] , give the reported Plant response rating, Ducksalad.
[reply] 0

[ask] Try this compound too: O=C(NCC(F)(F)F)c1cc(I)n(Cc2cccc(C(F)(F)F)c2)n1 [Compound 181]
[reply] 0

src = patent US20150105252A1
